# Tested on: HeLa
# experimental protocol: Primary qHTS to identify gynecologic anti-cancer compounds using libraries of approved drugs and bioactive compounds (AID 1345084); further: nearly all actives have a fitted effect of over 55% in size
# applied conditions: Gynecologic cancer cell panel viability, ATPlite luminescence, 48 h; series mostly up to 57.5 µM
Inconclusive results are not listed. The source made the active and inactive calls. The call rests on the fitted dose curve; in most records, active means well fitted cell-killing curve with a large enough effect; inconclusive means small, poorly fitted or top-dose-only effect, or effect the other way; inactive means flat fitted curve, though single readings scatter.
Give one outcome, nothing more. List: T for active, F for inactive

Request: I'd appreciate the recorded outcome for C/C=C/C=C/C=C/C(=O)OC1C=C(C=O)C(O)(C(=O)O)C2(C)CCCC(C)(C)C12 (configuration not stated) from this test.
Response: F

Request: I'd appreciate the recorded outcome for Cn1cc(S(=O)(=O)c2ccc(Cl)cc2)c2cccc(N3CCNCC3)c21 from this test.
Response: F

Request: I'd appreciate the recorded outcome for C[C@@H]1C[C@@H]([C@@H](O)C(C)(C)O)O[C@H]2C[C@@]3(C)C(=C12)C[C@H](O)[C@H]1[C@@]2(C)CCC(=O)C(C)(C)C2CC[C@@]13C (some centres not stated) from this test.
Response: F

Request: I'd appreciate the recorded outcome for CC(O)CO[C@@H]1O[C@H](CO)[C@@H](O)[C@H](O)[C@H]1O (some centres not stated) from this test.
Response: F

Request: I'd appreciate the recorded outcome for C[C@@H]([C@@H](O)c1ccc(O)cc1)N1CCC(O)(c2ccccc2)CC1 from this test.
Response: F
